Target: CYP2D6 (Homo sapiens, UniProt P10635)
Construct: purchased BD Bioscience
Sequence (P10635 whole entry): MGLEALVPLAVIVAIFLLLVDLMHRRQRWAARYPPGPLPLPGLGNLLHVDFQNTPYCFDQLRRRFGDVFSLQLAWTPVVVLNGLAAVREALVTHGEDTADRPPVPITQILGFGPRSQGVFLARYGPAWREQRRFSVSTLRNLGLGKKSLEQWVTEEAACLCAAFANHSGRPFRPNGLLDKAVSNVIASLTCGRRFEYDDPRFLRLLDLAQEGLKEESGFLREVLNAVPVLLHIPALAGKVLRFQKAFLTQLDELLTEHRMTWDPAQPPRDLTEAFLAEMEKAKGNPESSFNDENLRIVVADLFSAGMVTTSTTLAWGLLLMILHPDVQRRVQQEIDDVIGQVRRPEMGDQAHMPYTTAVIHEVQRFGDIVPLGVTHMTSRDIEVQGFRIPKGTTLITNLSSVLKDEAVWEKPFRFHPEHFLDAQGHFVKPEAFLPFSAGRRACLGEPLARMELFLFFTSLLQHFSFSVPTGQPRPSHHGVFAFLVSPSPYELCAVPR
Experiment: CYP2D6 inhibition (dextromethorphan O-demethylation) in human hepatic microsomes
Assay type: in vitro ADME
Conditions: pooled male human hepatic microsomes
READOUT: IC50 (µM)
Kindly answer with a numeric value in µM, unit omitted.

Inquiry: For the compound Cc1cccc2c1Oc1ccccc1C1(O)CCN(C)CC21 (racemic) [beloxepin] , what IC50 is on record?
Reply text: 31.7

----------
Molecular target: CYP2D6 (Homo sapiens, UniProt P10635)
Construct: purchased BD Bioscience
Assay: CYP2D6 inhibition screening, recombinant enzyme, MAMC substrate
Format: in vitro ADME
Conditions: human recombinant CYP2D6 microsomes; read-out: CYP2D6 IC50 (initial screening, MAMC substrate)
READOUT: IC50
Answer format: number, then unit.

Inquiry: For the molecule Cc1cccc2c1Oc1ccccc1C1(O)CCN(C)CC21 (racemic) [beloxepin] , what IC50 is on record?
Reply text: 536 nM
